- target_desc: T1, IL6-R on U266 cells (human, UniProt P08887 20-468)
- T1 sequence (looked up): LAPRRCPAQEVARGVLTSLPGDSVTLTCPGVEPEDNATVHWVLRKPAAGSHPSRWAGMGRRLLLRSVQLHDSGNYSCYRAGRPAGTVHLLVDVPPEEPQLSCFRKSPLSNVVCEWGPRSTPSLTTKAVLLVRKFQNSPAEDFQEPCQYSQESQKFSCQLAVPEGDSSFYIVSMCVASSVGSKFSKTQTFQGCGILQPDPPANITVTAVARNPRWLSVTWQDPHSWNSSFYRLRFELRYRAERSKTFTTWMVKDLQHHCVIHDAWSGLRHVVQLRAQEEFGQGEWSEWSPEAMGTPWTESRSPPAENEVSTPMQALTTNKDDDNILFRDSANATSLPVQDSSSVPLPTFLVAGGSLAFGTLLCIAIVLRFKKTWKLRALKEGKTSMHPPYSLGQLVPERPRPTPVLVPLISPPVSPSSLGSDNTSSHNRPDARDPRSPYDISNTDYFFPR
- test_description: cell-based or functional assay
measurement_name: IC50, TF-1 proliferation (nM)
Lab book: enter the figure in nM, no units written.

- binder: "IL6R09 (VHH, also called PMP34G9; PMP 34 G9) VHH: EVQLVESGGGLVQAGGSLRLSCAASGRTSSSYDMTWYRQVPGKEREFVAVISWSGGSTYYADSVKGRFTISRDNAKNTVYLQMNSLKPEDTAIYYCNAYTGGGDDYWGQGTQVTVSS"
  IC50, TF-1 proliferation [nM]: 10

Query binder follows.
(Q) Let me know recorded IC50, TF-1 proliferation for IL6R08 (VHH, also called PMP34A12; PMP 34 A12) VHH: EVQLVESGGGLVQPGGSLRLSCVASGFSLDYYVIGWFRQAPGKEREGVSCISSSDGSTYYADSVKGRFTISRDNAKNTVYLQMNSLKPEDTAVYYCAADLLRTPEFCVDSAPYDYWGQGTQVTVSS , thanks.
(A) 42.9

Reference source: patent US20140221623A1
